- System: forced swimming test with rats (duration of immobility)
- test protocol: Antidepressant activity: forced swimming test using rats
- Assay type: in vivo, Wistar male rats
- conditions: p.o., 30 mg/kg, 1 hour before test
The reader will find reported Duration of immobility values listed item by item below.
Kindly provide the numeric value in s only, without the unit symbol.

# molecule, Duration of immobility [s]
data = [
    ("C#CCN(C)Cc1ccccc1 [Pargyline, pargyline, reference compound]", 244),
    ("CN(C)CCCN1c2ccccc2CCc2ccccc21 [Imipramine, imipramine, reference compound]", 210),
    ("C(=C1CCNC1)c1cccc(Oc2ccccc2)c1", 40),
]

// below: Duration of immobility requested for another molecule
Query for forced swimming test with rats (duration of immobility): what Duration of immobility does the record show for `O=C1NCCC1=Cc1cccc(Oc2ccccc2)c1` ?
34

###

- test protocol: Acute toxicity test, oral
- Assay type: in vivo, ddY male mice
- conditions: mouse, in vivo, ddY mice, 2 weeks observation
The reader will find reported LD50 at 336 h values listed item by item below.

Suppose we examine the compound O=C1NCCC1=Cc1ccccc1Oc1ccccc1 [Compound 3] ; what LD50 at 336 h value has been reported?
≥ 500 mg/kg

###

- System: experimental amnesia in mice induced by cycloheximide
- test protocol: Anti-amnesic effect: passive avoidance task (step-through), cycloheximide-induced amnesia
- Assay type: in vivo, ddY male mice
- conditions: 3 mg/kg oral, mean of group
The reader will find reported Step-through latency values listed item by item below.
Kindly provide the numeric value in s only, without the unit symbol.

Sample records with Step-through latency:
# molecule, quantitative result
data = [
    ("S=C1NCCC1=Cc1cccc(Oc2ccccc2)c1", 70),
    ("CC1CC(=Cc2cccc(Oc3ccccc3)c2)C(=O)N1 (centres unmarked)", 120),
    ("CON1CCC(=Cc2cccc(Oc3ccccc3)c2)C1=O", 100),
    ("CCN1CCC(=Cc2cccc(Oc3ccccc3)c2)C1=O", 127),
]

Suppose we examine the molecule `O=C1NCCC1=Cc1cccc(Oc2ccc(Cl)cc2)c1` ; what Step-through latency value has been reported?
101

###

- target or test system: M1 receptor (Rattus norvegicus, UniProt P08482)
- Construct: rat's brain except for cerebellum was homogenized; from tissue; host or cells: rat brain except cerebellum, homogenate
- test protocol: Receptor binding activity, inhibition of [3H]pyrenzepine binding to M1
- conditions: 10 μM test compound, 1 nM [3H]pyrenzepine, rat's brain except cerebellum
The reader will find reported inhibition at 10 µM values listed item by item below.
Kindly provide the numeric value in % only, without the unit symbol.

Sample records with inhibition at 10 µM:
# compound, inhibition at 10 µM [%]
rows = [
    ("CON1CCC(=Cc2cccc(Oc3ccccc3)c2)C1=O", 63),
    ("CCCN1CCC(=Cc2cccc(Oc3ccccc3)c2)C1=O", 58),
]

Query for M1 receptor (Rattus norvegicus, UniProt P08482): what inhibition at 10 µM does the record show for `CCN1CCC(=Cc2cccc(Oc3ccccc3)c2)C1=O` ?
90

Query `O=C1C(=Cc2cccc(Oc3ccccc3)c2)CCN1CCF` next
87

###

- test protocol: Acute toxicity test, oral
- Assay type: in vivo, ddY male mice
- conditions: mouse, in vivo, ddY mice, 2 weeks observation
- Procedure: With respect to the compounds 1 to 86 shown in Table 1 as test compounds, the acute toxicity was examined using ddY mice according to the following method. In each group, six male ddY mice weighing 27 to 30 g were employed. The compounds 1 to 86 suspended in an aqueous solution of 0.5% sodium carboxymethylcellulose were administered orally in a volume of 0.1 ml/10 g body weight. […] The LD50 (mg/kg) values were estimated from the ratio of the number of dead mice to the number of mice used.
metric name: LD50 at 336 h

Sample records with LD50 at 336 h:
# molecule, LD50 at 336 h
data = [
    ("O=C1C(=Cc2cccc(Oc3ccccc3)c2)CCN1c1ccccc1 [Compound 46]", "≥ 500 mg/kg"),
    ("CCOC1CC(=Cc2cccc(Oc3ccccc3)c2)C(=O)N1CC (centres unmarked) [Compound 57]", "≥ 500 mg/kg"),
    ("CCOC1CC(=Cc2cccc(Oc3ccccc3)c2)C(=O)N1 (centres unmarked) [Compound 56]", "≥ 500 mg/kg"),
    ("COC1CC(=Cc2cccc(Oc3ccccc3)c2)C(=O)N1 (centres unmarked) [Compound 55]", "≥ 500 mg/kg"),
]

Suppose we examine the molecule CCCCN1CCC(=Cc2cccc(Oc3ccccc3)c2)C1 [Compound 68] ; what LD50 at 336 h value has been reported?
≥ 500 mg/kg

###

- target or test system: M1 receptor (Rattus norvegicus)
- Construct: rat's brain except for cerebellum was homogenized; from tissue; host or cells: rat brain except cerebellum, homogenate
- Sequence (P08482 1-460): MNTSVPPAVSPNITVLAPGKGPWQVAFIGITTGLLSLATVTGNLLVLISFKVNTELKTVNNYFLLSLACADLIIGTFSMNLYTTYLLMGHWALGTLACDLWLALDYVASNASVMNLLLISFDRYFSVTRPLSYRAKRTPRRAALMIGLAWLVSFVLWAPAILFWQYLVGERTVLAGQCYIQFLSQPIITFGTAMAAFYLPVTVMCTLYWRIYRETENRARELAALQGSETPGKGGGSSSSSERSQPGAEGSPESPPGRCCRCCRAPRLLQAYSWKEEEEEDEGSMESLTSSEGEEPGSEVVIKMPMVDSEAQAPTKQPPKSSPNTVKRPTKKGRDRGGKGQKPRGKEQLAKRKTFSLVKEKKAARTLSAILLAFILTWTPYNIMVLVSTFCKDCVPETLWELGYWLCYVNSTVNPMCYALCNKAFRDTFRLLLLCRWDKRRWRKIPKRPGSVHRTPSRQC
- test protocol: Receptor binding activity, inhibition of [3H]pyrenzepine binding to M1
- conditions: 1 μM test compound, 1 nM [3H]pyrenzepine, rat's brain except cerebellum
The reader will find reported inhibition at 1 µM values listed item by item below.
Please format your answer as a value with the unit trailing.

Sample records with inhibition at 1 µM:
# molecule, target or test system, inhibition at 1 µM
records = [
    ("CCN1CC(=Cc2cccc(Oc3ccccc3)c2)CC1C (stereo not shown)", "M1 receptor (Rattus norvegicus)", "65%"),
    ("CCN1CC(=Cc2cccc(Oc3ccccc3)c2)C(C)C1 (stereo not shown)", "M1 receptor (Rattus norvegicus)", "80%"),
    ("CC(C)N1CCC(=Cc2cccc(Oc3ccccc3)c2)C1", "M1 receptor (Rattus norvegicus)", "75%"),
]

// below: inhibition at 1 µM requested for another molecule
Suppose we examine the molecule `CCN1CCC(=Cc2cccc(Oc3ccccc3)c2)C1` ; what inhibition at 1 µM value has been reported?
82%

###

- Tested on: experimental amnesia in mice induced by cycloheximide
- test protocol: Anti-amnesic effect: passive avoidance task (step-through), cycloheximide-induced amnesia
- Format: in vivo, ddY male mice
- conditions: 3 mg/kg oral, mean of group
Step-through latency below 100 s gives no; Step-through latency at or above it gives yes.

// known answers, use as guide
# compound, cat
measured = [
    ("Nc1cc(C=C2CCNC2=O)ccc1Oc1ccccc1", "yes"),
    ("CCCCCCN1CCC(=Cc2cccc(Oc3ccccc3)c2)C1=O", "yes"),
    ("CCCN1CCC(=Cc2cccc(Oc3ccccc3)c2)C1=O", "yes"),
    ("COC1CC(=Cc2cccc(Oc3ccccc3)c2)C(=O)N1 (centres unmarked)", "no"),
    ("O=C1C(=Cc2cccc(Oc3ccccc3)c2)CCN1c1ccccc1", "yes"),
    ("CCOC1CC(=Cc2cccc(Oc3ccccc3)c2)C(=O)N1CC (centres unmarked)", "yes"),
    ("O=C1NCC(c2ccccc2)C1=Cc1cccc(Oc2ccccc2)c1 (centres unmarked)", "yes"),
]

Please look at the following compound next.
Decide: Step-through latency of `COCCN1CCC(=Cc2cccc(Oc3ccccc3)c2)C1=O` >= 100 s?
no

###

- System: experimental amnesia in mice induced by cycloheximide
- test protocol: Anti-amnesic effect: passive avoidance task (step-through), cycloheximide-induced amnesia
- Format: in vivo, ddY male mice
- conditions: 3 mg/kg oral, mean of group
- Protocol: As experimental animals, Wistar male rats and ddY male mice were used for the tests after they were housed for a week under every 12 hours' dark-light cycle at room temperature of 24° to 26° C. The effect on experimental amnesia in mice induced by cycloheximide was evaluated. The experiment was carried out using an experimental apparatus of passive avoidance task for mice (made by Ohara-ika-sangyo K. K.) comprising a box divided into the two compartments of dark and light. […]
The reader will find reported Step-through latency values listed item by item below.
Kindly provide the numeric value in s only, without the unit symbol.

Sample records with Step-through latency:
# molecule, target or test system, Step-through latency / s
measured = [
    ("COc1ccc(Oc2cccc(C=C3CCNC3=O)c2)cc1", "experimental amnesia in mice induced by cycloheximide", 134),
    ("CCN1C(=O)C(=Cc2cccc(Oc3ccccc3)c2)CC1C (centres unmarked)", "experimental amnesia in mice induced by cycloheximide", 114),
    ("CCN1CCC(=Cc2ccc(Oc3ccccc3)cc2)C1=O", "experimental amnesia in mice induced by cycloheximide", 100),
    ("O=C1NCCC1=Cc1ccccc1Oc1ccccc1", "experimental amnesia in mice induced by cycloheximide", 173),
]

Suppose we examine the molecule `O=C(C=Cc1ccccc1)N1CCC(=Cc2cccc(Oc3ccccc3)c2)C1=O` ; what Step-through latency value has been reported?
132

Query `O=C1C(=Cc2cccc(Oc3ccccc3)c2)CCN1Cc1ccccc1` next
117

Query `CC(=O)N1CCC(=Cc2cccc(Oc3ccccc3)c2)C1=O` next
80

Query `CCCCN1CCC(=Cc2cccc(Oc3ccccc3)c2)C1=O` next
152

Query `CN1CCC(=Cc2cccc(Oc3ccccc3)c2)C1=O` next
151

Query O=C1C(=Cc2cccc(Oc3ccccc3)c2)CCN1CCOC1CCCCO1 (centres unmarked) next
109

Query CCOC1CC(=Cc2cccc(Oc3ccccc3)c2)C(=O)N1 (centres unmarked) next
129

Query `CC(C)N1CCC(=Cc2cccc(Oc3ccccc3)c2)C1=O` next
176

Query `O=C1NCCC1=Cc1cccc(Oc2ccccc2)c1` next
198

Query `O=C1NCCC1=Cc1ccc(Oc2ccccc2)c([N+](=O)[O-])c1` next
113

Query O=C1NC(N2CCCC2)CC1=Cc1cccc(Oc2ccccc2)c1 (centres unmarked) next
157

Query `O=C1NCCC1=Cc1ccc(Oc2ccccc2)cc1` next
188

Query `C(=C1CCNC1)c1cccc(Oc2ccccc2)c1` next
150
